Cited source: PubChem BioAssay AID777

- system_tested: Cytochrome P450 2C9 (Homo sapiens) (UniProt P11712)
- Sequence (P11712 whole entry, looked up): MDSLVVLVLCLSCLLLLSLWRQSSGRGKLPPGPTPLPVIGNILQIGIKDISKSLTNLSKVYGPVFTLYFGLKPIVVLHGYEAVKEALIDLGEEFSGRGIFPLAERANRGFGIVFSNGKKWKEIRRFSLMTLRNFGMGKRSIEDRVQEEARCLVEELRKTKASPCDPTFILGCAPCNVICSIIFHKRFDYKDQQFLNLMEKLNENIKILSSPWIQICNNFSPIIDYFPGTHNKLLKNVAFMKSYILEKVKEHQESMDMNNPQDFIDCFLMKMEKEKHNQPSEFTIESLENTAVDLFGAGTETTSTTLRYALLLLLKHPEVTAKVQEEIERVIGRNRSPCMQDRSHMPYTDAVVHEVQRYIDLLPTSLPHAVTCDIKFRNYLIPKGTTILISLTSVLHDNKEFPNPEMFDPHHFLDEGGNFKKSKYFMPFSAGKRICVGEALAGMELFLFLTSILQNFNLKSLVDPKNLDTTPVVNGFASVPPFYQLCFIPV
- protocol: blockers of cytochrome P450 2C9 activity – biochemical, luminescence, ADME assay, primary screen (AID 777)
- protocol_conditions: CYP2C9 Supersomes, luciferin-H conversion, at 5 µM, active compounds read high
In all, about 96,000 compounds went through this assay and about 19,000 (20%) were called active. These entries were drawn from the full list.
readout: inhibition

Q) Can you look up the measured inhibition of CC1Cc2ccccc2N1C(=O)CSc1nc2ccccc2o1 (stereo unspecified) for me?
A) 28.2% (inactive)

Q) Record: Cc1cc(C)cc(NC(=O)C2CCN(c3nc(C)cc(C)n3)CC2)c1
A) 15.4% (inactive)

Q) Record: CCOC(=O)C1CCCCN1Cc1ccc(OC)c(OC)c1OC (stereo unspecified)
A) 29.7% (inactive)

New cases:
Q) Can you look up the measured inhibition of Cn1c(=O)c2c(nc(N3CCCCCC3)n2CC(O)COc2ccc(Cl)cc2)n(C)c1=O (stereo unspecified) for me?
A) 20% (inactive)

Q) Record: CSCCC(NC(=O)COc1ccccc1)C(=O)OCC(=O)c1cc2ccccc2o1 (stereo unspecified)
A) 43.3% (inactive)

Q) Record: COC(=O)c1cccc(NC(=O)CSc2nc(C)cc(=O)[nH]2)c1
A) 42.6% (inactive)

Q) Record: Cc1cccc(C(=O)NCCCN2CCCC2=O)c1
A) -4% (inactive)

Q) Record: COc1ccc(OCC(=O)N2CCOCC2)cc1
A) 17.3% (inactive)

Q) Record: CCOC(=O)c1ccc2c(c1)nc(SCC(=O)NC(C)C)n2CC
A) 62.3% (active)

Q) Record: CCOc1ccc(S(=O)(=O)NCC2CCCO2)cc1 (stereo unspecified)
A) 7.4% (inactive)

Q) Record: CSc1ccc(C#N)cc1NC(=O)c1ccc(Cl)cc1
A) 6.3% (inactive)

Q) Record: COc1ccc2c(c1)OC(O)(C(F)(F)C(F)F)CC2=O (stereo unspecified)
A) 78.5% (active)

Q) Record: COc1cc(N=Cc2c(O)[nH]c3ccccc23)cc(OC)c1OC
A) 66% (active)

Q) Record: O=C(NC1(C(F)(F)F)N=C2SCCN2C1=O)c1ccco1 (stereo unspecified)
A) -10% (inactive)

Q) Record: COc1ccc(NC(=O)Nc2ccc3nc(C)c(C)nc3c2)cc1
A) 18.7% (inactive)

Q) Record: COc1ccc2c(c1)SC(C)CC2=O (stereo unspecified)
A) 12.7% (inactive)

Q) Record: COc1ccc(OC)c(N=Cc2c(O)[nH]c3ccccc23)c1
A) 15.1% (inactive)

Q) Record: Cc1cccc(C)c1NC(=O)CCS(=O)(=O)c1cccc2nsnc12
A) -1% (inactive)

Q) Record: CCn1c2c(c3ccc(OC)cc31)CCCC2=O
A) 41.1% (inactive)

Q) Record: O=c1[nH]c(-c2cccs2)nc2ccccc12
A) 3.1% (inactive)

Q) Record: CCn1c(C)nc2cc(C(=O)NNS(=O)(=O)c3ccc(C)cc3C)ccc21
A) -5.3% (inactive)
